Molecular target: FAK enzyme (6 His tagged kinase domain, GenBank NP—722560) (Homo sapiens, UniProt Q05397)
Sequence (Q05397 422-680 limits assumed): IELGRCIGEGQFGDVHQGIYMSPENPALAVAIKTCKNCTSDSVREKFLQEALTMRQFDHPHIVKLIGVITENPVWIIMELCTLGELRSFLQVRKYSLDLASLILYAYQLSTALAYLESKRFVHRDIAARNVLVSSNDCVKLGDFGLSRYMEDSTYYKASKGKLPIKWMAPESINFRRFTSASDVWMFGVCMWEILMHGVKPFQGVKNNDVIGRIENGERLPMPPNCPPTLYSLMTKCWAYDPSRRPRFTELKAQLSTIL
Exam item: assign satisfied to entries whose IC50 is below 30 nM and not satisfied to entries at or above 30 nM. Note that a value of exactly 30 nM receives not satisfied.

Some solved cases for reference:
Cc1nn(C)cc1Nc1cc(Nc2cccc3c2C(=O)N(C)CC3)c(F)cn1 [Example 4.12] ... not satisfied
CNC(=O)c1ccccc1Nc1cc(Nc2cn(C)nc2C(=O)N(C)C)ncc1C(F)(F)F [Example 12.08] ... not satisfied
CNC(=O)c1ccccc1Nc1cc(Nc2cnn(CC(=O)N3CCC(N(C)C)CC3)c2)ncc1F [Example 4.06] ... not satisfied
CNC(=O)c1ccccc1Nc1cc(Nc2cc(C3CC3)[nH]n2)ncc1Cl [Example 3.17] ... not satisfied
CN1CCc2cccc(Nc3cc(Nc4ccn(C5CCNCC5)n4)ncc3F)c2C1=O [Example 4.19] ... not satisfied

Criterion: IC50 strictly below 30 nM. Is it met by CONC(=O)c1c(Nc2cc(Nc3c(C)nn(C)c3C)ncc2C(F)(F)F)cccc1OC [Example 15.05] ?
satisfied

Criterion: IC50 strictly below 30 nM. Is it met by CNC(=O)c1ccccc1Nc1cc(Nc2cnn(CC(C)C)c2)ncc1C(F)(F)F [Example 8.09] ?
not satisfied

Just wondering, is IC50 of CONC(=O)c1ccccc1Nc1cc(Nc2cn(C)nc2C)ncc1C(F)(F)F [Example 10.08] below 30 nM?
satisfied

Determine if CONC(=O)c1ccccc1Nc1cc(Nc2cc(C)n(C)n2)ncc1Cl [Example 3.02] shows IC50 strictly lower than 30 nM.
not satisfied

Does CONC(=O)c1ccccc1Nc1cc(Nc2cc(C)nn2C)ncc1C(F)(F)F [Example 14.02] have IC50 strictly under 30 nM?
satisfied

Item CN1CCN(C(=O)Cn2cc(Nc3cc(Nc4cccc5c4C(=O)N(C)CC5)c(F)cn3)cn2)CC1 [Example 4.26] : IC50 beneath 30 nM, strictly?
not satisfied

Regarding CONC(=O)c1ccccc1Nc1cc(Nc2cn(C)nc2C)ncc1Cl [Example 3.01] , kindly confirm whether its IC50 is beneath 30 nM.
not satisfied
